System: barnyardgrass (Echinochloa crus-galli)
Assay: General postemergence herbicidal activity, ECHCG
Type: in vivo
Details: Echinochloa crus-galli, post-emergence, 336 h, 280 g ai/ha, postemergence spray, visual score after 14 days, 0 = no injury, 100 = complete kill; read-out: Post-emergent Weed Control ECHCG
Labelling field: enter rule met if recorded pest or weed control at 280 g/ha is less than 80%. Enter rule not met if it equals or exceeds that cut-off.

{"columns": ["COMPOUND", "ASSIGNED_CATEGORY"],
 "data": [
  ["COC(=O)c1nc(-c2ccc(Cl)c(OC)c2F)cc(N)c1C(F)F", "rule not met"],
  ["C=Cc1c(N)cc(-c2ccc(Cl)c(OC)c2F)nc1C(=O)OC", "rule met"],
  ["COC(=O)c1nc(-c2ccc(Cl)c(OC)c2F)cc(N)c1C=O", "rule not met"],
  ["COC(=O)c1nc(-c2ccc(Cl)c(OC)c2F)nc(N)c1C(F)F", "rule met"],
  ["C=Cc1c(N)nc(-c2ccc(Cl)cc2)nc1C(=O)O", "rule not met"]
]}

Q: Lab note: confirm whether the reported pest or weed control at 280 g/ha for this compound is below 80%, equality not counting. compound: C=Cc1c(N)nc(-c2ccc(Cl)c(OC)c2)nc1C(=O)O
Ans: rule met

Q: Lab note: confirm whether the reported pest or weed control at 280 g/ha for this compound is below 80%, equality not counting. compound: COc1c(Cl)ccc(-c2nc(N)c(C(C)OC)c(C(=O)O)n2)c1F (stereo not shown)
Ans: rule not met

Q: Lab note: confirm whether the reported pest or weed control at 280 g/ha for this compound is below 80%, equality not counting. compound: C=C(OCC)c1c(N)nc(-c2ccc(Cl)c(OC)c2F)nc1C(=O)OC
Ans: rule met

* * *

Tested on: lambsquarter (Chenopodium album)
Assay: General postemergence herbicidal activity, CHEAL
Format: in vivo
Conditions: Chenopodium album, post-emergence, 336 h; 70 g ai/ha, postemergence spray, visual score after 14 days, 0 = no injury, 100 = complete kill; read-out: Post-emergent Weed Control CHEAL
EXPERIMENTAL_ENDPOINT: pest or weed control at 70 g/ha (%)
Number in %, nothing else.

Before answering, review these 4 worked examples.
{"columns": ["COMPOUND", "MEASURED_NUMBER"],
 "data": [
  ["C=Cc1c(N)nc(-c2ccc(Cl)c(OC)c2F)nc1C(=O)O", 100],
  ["C=Cc1c(N)nc(-c2ccc(Cl)c(C(C)F)c2F)nc1C(=O)O (centres unmarked)", 100],
  ["C=Cc1c(N)nc(-c2ccc(Cl)c(F)c2F)nc1C(=O)OC", 100],
  ["C=Cc1c(N)nc(-c2ccc(Cl)c(C(C)F)c2F)nc1C(=O)OC (centres unmarked)", 100]
]}

Q: Write down the reported pest or weed control at 70 g/ha of C/C=C\c1c(N)nc(-c2ccc(Cl)c(OC)c2F)nc1C(=O)OC , test system: lambsquarter (Chenopodium album).
Ans: 95

* * *

System: barnyardgrass (Echinochloa crus-galli)
Assay: General postemergence herbicidal activity, ECHCG
Assay type: in vivo
Conditions: Echinochloa crus-galli, post-emergence, 336 h, 140 g ai/ha, postemergence spray, visual score after 14 days, 0 = no injury, 100 = complete kill; read-out: Post-emergent Weed Control ECHCG
Labelling field: enter TRUE if recorded pest or weed control at 140 g/ha is less than 30%. Enter FALSE if it equals or exceeds that cut-off.

{"columns": ["ITEM_SMILES", "ASSIGNED_CATEGORY"],
 "data": [
  ["C=Cc1c(N)nc(-c2ccc(Cl)c(F)c2)nc1C(=O)OC", "TRUE"]
]}

Switching to the query record.
Q: Lab note: confirm whether the reported pest or weed control at 140 g/ha for this molecule is below 30%, equality not counting. molecule: COc1c(Cl)ccc(-c2nc(N)c(C)c(C(=O)O)n2)c1F
Ans: FALSE

Every entry's value here was drawn from patent US8658791B2.
